Entries and their measured self-cleavage follow.
B1: CPEB3 Ribozyme (parent)
chain: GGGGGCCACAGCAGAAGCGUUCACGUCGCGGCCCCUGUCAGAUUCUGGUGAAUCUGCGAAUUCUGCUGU

- Variants of: B1
- Test name: self-cleavage, relative activity (ratio to wild type); higher = more cleavage; co-transcriptional

Look over these answered cases.
- Mutation: "G30C A59G"
  self-cleavage: 0.708
- Mutation: "U43C G48C"
  self-cleavage: 1
- Mutation: "A52G"
  self-cleavage: 0.995
- Mutation: "G5A C29U"
  self-cleavage: 0.303
- Mutation: "U21C G48C"
  self-cleavage: 0.967

Now for the variant whose self-cleavage we want.
Ask: Would you mind telling me what self-cleavage value was observed for C29U G65U ?
Reply: 0.167
